Target protein (sequence): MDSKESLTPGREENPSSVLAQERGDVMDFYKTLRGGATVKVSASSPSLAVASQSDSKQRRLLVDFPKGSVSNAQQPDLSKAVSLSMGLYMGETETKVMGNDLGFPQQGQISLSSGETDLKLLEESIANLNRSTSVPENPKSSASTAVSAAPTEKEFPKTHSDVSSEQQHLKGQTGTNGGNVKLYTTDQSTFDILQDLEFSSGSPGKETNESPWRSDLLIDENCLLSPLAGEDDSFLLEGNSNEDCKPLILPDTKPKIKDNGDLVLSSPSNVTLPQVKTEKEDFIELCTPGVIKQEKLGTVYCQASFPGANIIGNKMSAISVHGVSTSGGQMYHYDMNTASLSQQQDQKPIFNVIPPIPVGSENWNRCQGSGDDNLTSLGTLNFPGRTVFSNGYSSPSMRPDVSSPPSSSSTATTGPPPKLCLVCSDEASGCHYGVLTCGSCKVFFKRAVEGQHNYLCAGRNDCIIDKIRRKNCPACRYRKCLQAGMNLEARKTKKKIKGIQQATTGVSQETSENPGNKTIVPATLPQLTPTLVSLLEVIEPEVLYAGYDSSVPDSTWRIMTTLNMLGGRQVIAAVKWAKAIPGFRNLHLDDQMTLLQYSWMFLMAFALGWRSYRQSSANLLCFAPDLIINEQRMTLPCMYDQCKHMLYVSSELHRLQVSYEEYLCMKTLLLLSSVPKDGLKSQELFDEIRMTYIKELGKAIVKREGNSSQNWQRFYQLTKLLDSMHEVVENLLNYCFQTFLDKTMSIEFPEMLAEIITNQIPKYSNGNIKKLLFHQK
READOUT_LABEL: IC50 (nM)

A. C=C1C[C@H]2[C@@H]3CCC4=CC(=O)CC[C@@H]4[C@H]3CC[C@]2(C)[C@@]1(OC(C)=O)C(C)=O
B. CC(=O)O[C@]1(C(C)=O)CC[C@H]2[C@@H]3C[C@H](C)C4=CC(=O)CC[C@]4(C)[C@H]3CC[C@@]21C [medroxyprogesterone acetate]
Ask: Which value of IC50 is greater, the one for A or the one for B ? Give the label under which the chosen entry appears.
Result: A
